// reported pIC50 for each item listed
# Tested on: MDA-MB-231
# protocol: Cytotoxicity against human MDA-MB-231 cells assessed as inhibition of cell viability incubated for 72 hrs by MTT assay
# Format: functional, cell-based
# runConditions: MDA-MB-231, 72 h
pIC50: −log10 of the molar value.

The examples below pair each entry with its known result.
- structureAsSmiles: "Cc1c(C(=O)Oc2ccc(CN3C[C@H](O)C[C@H]3C(=O)O)c(OCc3cccc(C#N)c3)c2)cccc1-c1ccccc1"
  endpointName: "pIC50"
  testResult: "< 4.70"
- structureAsSmiles: "Cc1cc(OC(=O)c2cccc(-c3ccccc3)c2C)ccc1CN[C@@H](CO)C(=O)O"
  endpointName: "pIC50"
  testResult: "< 4.70"

Q: Hi! What's the reported pIC50 for Cc1c(C(=O)Oc2ccc(CNC(CO)(CO)CO)c(Br)c2)cccc1-c1ccccc1 on MDA-MB-231?
Result: < 4.70

Q: Now this one: COc1cc(OC(=O)c2cccc(-c3ccccc3)c2C)ccc1CNC(CO)CO
Result: < 4.70

Q: Now this one: Cc1c(C(=O)Oc2ccc(CN[C@@H](CO)C(=O)O)cc2)cccc1-c1ccccc1
Result: < 4.70

Q: Now this one: COc1cc(OC(=O)c2cccc(-c3ccccc3)c2C)ccc1CN[C@@H](CO)C(=O)O
Result: < 4.70

Q: Now this one: Cc1c(C(=O)Oc2ccc(CNCCO)c(OCc3cccc(C#N)c3)c2)cccc1-c1ccccc1
Result: 5.11

Q: Now this one: Cc1cc(OC(=O)c2cccc(-c3ccccc3)c2C)ccc1CNC(CO)(CO)CO
Result: 4.74

// provenance: ChEMBL document CHEMBL5500367
